# assay-overview: Tested for the half life period in dog at dosage of 10 mpk
# Format: ADME, organism-based, Canis lupus familiaris
# condition-parameters: in vivo, 10 mg/kg
property-label: half-life (min)
Answers are plain numbers, in min.

compound: CC(C)(C)NC(=O)[C@@H]1CN(Cc2cccnc2)CCN1C[C@@H](O)C[C@@H](CC1CCCCC1)C(=O)NC1c2cccc(Cl)c2C[C@H]1O (single isomer, unassigned)
reading: 53

compound: C[C@@H]1CC[C@@H](O)C1NC(=O)[C@H](CC1CCCCC1)C[C@H](O)CN1CCN(Cc2cccnc2)C[C@H]1C(=O)NC(C)(C)C (single isomer, unassigned)
reading: 49

// C[C@@H]1CC[C@@H](O)C1NC(=O)[C@H](CC1CC1)C[C@H](O)CN1CCN(Cc2cccnc2)C[C@H]1C(=O)NC(C)(C)C (single isomer, unassigned) : half-life value = 41

* * *

# assay-overview: Tested for the pharmacokinetic data, area under the curve of concentration versus time in dog at dosage of 10 mpk
# Assay type: ADME, organism-based, Canis lupus familiaris
# condition-parameters: in vivo, 10 mg/kg
property-label: AUC (µM·h)
Numbers only, in µM·h.

A selection of reference data follows.
compound: C[C@@H]1CC[C@@H](O)C1NC(=O)[C@H](CC1CCCCC1)C[C@H](O)CN1CCN(Cc2cccnc2)C[C@H]1C(=O)NC(C)(C)C (single isomer, unassigned)
AUC / µM·h: 3.83

compound: CC(C)(C)NC(=O)[C@@H]1CN(Cc2cccnc2)CCN1C[C@@H](O)C[C@@H](CC1CCCCC1)C(=O)NC1c2cccc(Cl)c2C[C@H]1O (single isomer, unassigned)
AUC / µM·h: 0.48

// next entry
// C[C@@H]1CC[C@@H](O)C1NC(=O)[C@H](CC1CC1)C[C@H](O)CN1CCN(Cc2cccnc2)C[C@H]1C(=O)NC(C)(C)C (single isomer, unassigned) : AUC value = 5.28

* * *

Could you please report measured half-life for the items listed next?
# assay-overview: Tested for the half life period in dog
# Assay type: ADME, organism-based, Canis lupus familiaris
# condition-parameters: in vivo
Give bare numbers, in min.

A selection of reference data follows.
compound: C[C@@H]1CC[C@@H](O)C1NC(=O)[C@H](CC1CC1)C[C@H](O)CN1CCN(Cc2cccnc2)C[C@H]1C(=O)NC(C)(C)C (single isomer, unassigned)
half-life / min: 19

compound: CC(C)(C)NC(=O)[C@@H]1CN(Cc2cccnc2)CCN1C[C@@H](O)C[C@@H](CC1CCCCC1)C(=O)NC1c2ccccc2C[C@H]1O (single isomer, unassigned)
half-life / min: 54.4

compound: CC(C)(C)NC(=O)[C@@H]1CN(Cc2cccnc2)CCN1C[C@@H](O)C[C@@H](Cc1ccccc1)C(=O)NC1c2cccc(Cl)c2C[C@H]1O (single isomer, unassigned)
half-life / min: 45.8

Quick one: give me half-life for each item below, same order please.
1. C[C@@H]1CC[C@@H](O)C1NC(=O)[C@H](Cc1ccccc1)C[C@H](O)CN1CCN(Cc2cccnc2)C[C@H]1C(=O)NC(C)(C)C (single isomer, unassigned)
2. CC(C)(C)NC(=O)[C@@H]1CN(Cc2cccnc2)CCN1C[C@@H](O)C[C@@H](Cc1ccc(F)cc1)C(=O)N[C@@H]1c2cccc(F)c2C[C@H]1O
3. CC(C)(C)NC(=O)[C@@H]1CN(Cc2cccnc2)CCN1C[C@@H](O)C[C@@H](CC1CCCCC1)C(=O)NC1c2cccc(Cl)c2C[C@H]1O (single isomer, unassigned)

**A:**
1: 31.5; 2: 48.2; 3: 81

Quick one: give me half-life for each item below, same order please.
1. CC(C)(C)NC(=O)[C@@H]1CN(Cc2cccnc2)CCN1C[C@@H](O)C[C@@H](CC1CC1)C(=O)NC1c2cccc(F)c2C[C@H]1O (single isomer, unassigned)
2. CC(C)(C)NC(=O)[C@@H]1CN(Cc2cccnc2)CCN1C[C@@H](O)C[C@@H](Cc1ccc(F)cc1)C(=O)NC1c2ccccc2C[C@H]1O (single isomer, unassigned)
3. CC(C)(C)NC(=O)[C@@H]1CN(Cc2cccnc2)CCN1C[C@@H](O)C[C@@H](CC1CC1)C(=O)NC1c2ccccc2C[C@H]1O (single isomer, unassigned)
4. CC(C)(C)NC(=O)[C@@H]1CN(Cc2cccnc2)CCN1C[C@@H](O)C[C@@H](Cc1ccccc1)C(=O)NC1c2ccccc2C[C@H]1O.O (single isomer, unassigned)

**A:**
[20.2, 44.6, 21.2, 27.1]
